test system: HCT116 (human colon carcinoma); experiment: Cytotoxic activity, alamarBlue assay, 72 h; assay type: cell-based; details: Homo sapiens, HCT-116; HCT116, alamarBlue, 72 h
Recorded IC50 values for a group of molecules are listed next.
Please state the figure in µM; there is no need to write the unit.

>>> observed_value("COc1cccc2c1C(=O)c1c(O)c3c(c(O)c1C2=O)C[C@@](O)(C(=O)CO)C[C@@H]3O[C@H]1C[C@H](N)[C@H](O)[C@H](C)O1 [DOX, doxorubicin]")
0.1

For the record COc1ccc2c(c1)C[C@@H]1NCCc3cc4c(c-2c31)OCO4 [XYL, xylopine] , what value of IC50 is listed for HCT116 (human colon carcinoma)?
6.4
